# System: FADU (Head and Neck Carcinoma);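 further: after 72 h of two-drug dosing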
# assay_protocol: Bliss excess, mean over the matrix (fraction); higher = more synergy
recorded_endpoint: Bliss excess
Give bare numbers.

Look over these answered cases.
[[record]]
compound = "Cc1cc2ncnn2cc1Nc1ncc2c(n1)n(C1CCOCC1)c(=O)n2C [AZD7648] + C[C@@H]1COCCN1C2=NC(=NC(=C2)C3(CC3)[S@](=N)(=O)C)C4=C5C=CNC5=NC=C4 [AZD6738] (first compound max 10 µM, 7x7, partner max 10 µM)"
target_of_assay = "FADU (Head and Neck Carcinoma)"
numeric_result = -0.0093

[[record]]
compound = "CC(=O)c1c(C)c2cnc(Nc3ccc(N4CCNCC4)cn3)nc2n(C2CCCC2)c1=O [Palbociclib] + CN(CC[C@H](CSC1=CC=CC=C1)NC2=C(C=C(C=C2)S(=O)(=O)NC(=O)C3=CC=C(C=C3)N4CCC(CC4)[C@H](C5=CC=CC=C5C6=CC=C(C=C6)Cl)O)S(=O)(=O)C(F)(F)F)CCO [AZD4320] (first compound max 10 µM, 7x7, partner max 1 µM)"
target_of_assay = "FADU (Head and Neck Carcinoma)"
numeric_result = -0.137


Working through the 5 compounds below one at a time, give Bliss excess for each.
1. Cn1cnc2c(F)c(Nc3ccc(Br)cc3Cl)c(C(=O)NOCCO)cc21 [Selumetinib] + CC(C)n1c(=O)n(C)c2cnc3cc(F)c(-c4ccc(OCCCN5CCCCC5)nc4)cc3c21 [AZD1390] (first compound max 10 µM, 7x7, partner max 0.3 µM)
2. Cc1c2c(nn1C)CSCc1cc(n(C)n1)CSc1cc(c3ccccc3c1)OCCCc1c(C(=O)O)n(C)c3c-2c(Cl)ccc13 [AZD5991] + CN(C)CCCOc1ccc(-c2ccc3ncc4c(c3c2)n(C2CCOCC2)c(=O)n4C)cn1 [AZD0156] (first compound max 1 µM, 7x7, partner max 1 µM)
3. COc1nnc2ccc(N3CCC(c4ccc(OCCN5CCN(C)C(=O)[C@H]5C)cc4)CC3)nn12 [AZD5153] + Cc1c2c(nn1C)CSCc1cc(n(C)n1)CSc1cc(c3ccccc3c1)OCCCc1c(C(=O)O)n(C)c3c-2c(Cl)ccc13 [AZD5991] (first compound max 1 µM, 7x7, partner max 1 µM)
4. C[C@@H](c1ccc2nccn2c1)n1nnc2ncc(-c3cnn(C)c3)nc21 [Savolitinib] + Cc1c2c(nn1C)CSCc1cc(n(C)n1)CSc1cc(c3ccccc3c1)OCCCc1c(C(=O)O)n(C)c3c-2c(Cl)ccc13 [AZD5991] (first compound max 1 µM, 7x7, partner max 1 µM)
5. CC1(C)CCC(CN2CCN(c3ccc(C(=O)NS(=O)(=O)c4ccc(NCC5CCOCC5)c([N+](=O)[O-])c4)c(Oc4cnc5[nH]ccc5c4)c3)CC2)=C(c2ccc(Cl)cc2)C1 [Venetoclax] + Cn1cnc2c(F)c(Nc3ccc(Br)cc3Cl)c(C(=O)NOCCO)cc21 [Selumetinib] (first compound max 1 µM, 7x7, partner max 3 µM)

Result:
1: -0.004; 2: 0.0409; 3: -0.0366; 4: -0.0687; 5: 0.0212

###

# Test system: PANC-03-27 (Pancreatic Carcinoma)
# assay_protocol: combination Emax (second highest fraction inhibited in the dose matrix, 72 h); higher = more inhibition; extreme values may be limits of the assay
Would you mind telling me the reported combination Emax of each entry?
Numbers only.

Examples with their reported combination Emax follow.
[[record]]
molecule = "NC1(C(=O)N[C@@H](CCO)c2ccc(Cl)cc2)CCN(c2ncnc3[nH]ccc23)CC1 [Capivasertib] + CCN(CCO)CCCOc1ccc2c(Nc3cc(CC(=O)Nc4cccc(F)c4)[nH]n3)ncnc2c1 [AZD2811] (first compound max 10 µM, 7x7, partner max 1 µM)"
numeric_result = 0.318

[[record]]
molecule = "COc1cccc(OCCCN)c1-c1cc(Nc2cnc(C#N)cn2)n[nH]1 [Prexasertib] + Cc1cc2ncnn2cc1Nc1ncc2c(n1)n(C1CCOCC1)c(=O)n2C [AZD7648] (first compound max 1 µM, 7x7, partner max 10 µM)"
numeric_result = 0.898

[[record]]
molecule = "NC1(C(=O)N[C@@H](CCO)c2ccc(Cl)cc2)CCN(c2ncnc3[nH]ccc23)CC1 [Capivasertib] + CC(=O)c1c(C)c2cnc(Nc3ccc(N4CCNCC4)cn3)nc2n(C2CCCC2)c1=O [Palbociclib] (first compound max 10 µM, 7x7, partner max 10 µM)"
numeric_result = 0.283


For each entry beneath this line, provide reported combination Emax.
1. CN(C)CCCOc1ccc(-c2ccc3ncc4c(c3c2)n(C2CCOCC2)c(=O)n4C)cn1 [AZD0156] + CCN(CCO)CCCOc1ccc2c(Nc3cc(CC(=O)Nc4cccc(F)c4)[nH]n3)ncnc2c1 [AZD2811] (first compound max 1 µM, 7x7, partner max 1 µM)
2. COc1cccc(OCCCN)c1-c1cc(Nc2cnc(C#N)cn2)n[nH]1 [Prexasertib] + O=C(c1cc(Cc2n[nH]c(=O)c3ccccc23)ccc1F)N1CCN(C(=O)C2CC2)CC1 [Olaparib] (first compound max 1 µM, 7x7, partner max 10 µM)
3. COc1nnc2ccc(N3CCC(c4ccc(OCCN5CCN(C)C(=O)[C@H]5C)cc4)CC3)nn12 [AZD5153] + Cn1cnc2c(F)c(Nc3ccc(Br)cc3Cl)c(C(=O)NOCCO)cc21 [Selumetinib] (first compound max 1 µM, 7x7, partner max 10 µM)
4. C=CCn1c(=O)c2cnc(Nc3ccc(N4CCN(C)CC4)cc3)nc2n1-c1cccc(C(C)(C)O)n1 [AZD1775] + C[C@@H]1COCCN1C2=NC(=NC(=C2)C3(CC3)[S@](=N)(=O)C)C4=C5C=CNC5=NC=C4 [AZD6738] (first compound max 1 µM, partner max 10 µM)
5. COc1nnc2ccc(N3CCC(c4ccc(OCCN5CCN(C)C(=O)[C@H]5C)cc4)CC3)nn12 [AZD5153] + CCN(CCO)CCCOc1ccc2c(Nc3cc(CC(=O)Nc4cccc(F)c4)[nH]n3)ncnc2c1 [AZD2811] (first compound max 1 µM, 7x7, partner max 1 µM)

Result:
[0.2, 0.918, 0.398, 0.939, 0.179]
